Below, each entry is listed with its recorded pEC50.
- SYSTEM: hTREM2 (Homo sapiens, UniProt Q9NZC2)
- Sequence (Q9NZC2 19-230): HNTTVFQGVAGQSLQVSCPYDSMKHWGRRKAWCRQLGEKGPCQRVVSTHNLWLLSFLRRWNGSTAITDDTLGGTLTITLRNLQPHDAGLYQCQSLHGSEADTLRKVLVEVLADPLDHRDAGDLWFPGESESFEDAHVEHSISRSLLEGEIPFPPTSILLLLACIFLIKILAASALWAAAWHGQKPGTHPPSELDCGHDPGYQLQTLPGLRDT
- Sequence (O43914 22-113 partner): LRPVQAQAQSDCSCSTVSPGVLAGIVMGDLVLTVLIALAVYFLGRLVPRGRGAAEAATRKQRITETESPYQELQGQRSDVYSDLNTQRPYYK
- MEASUREMENT PROTOCOL: TREM2 activity by cellular Syk phosphorylation (AlphaScreen/AlphaLISA) in TREM2/DAP12-HEK cells, used for Examples 1-305
- Type: cell-based
- Set-up: expressed in transfected cells
- APPLIED CONDITIONS: HEK293 Cells
pEC50: −log10 of the molar value.

STRUCTURE: Cc1cc([C@H]2CN(c3cc4nc(C)cnc4c(-c4ccc(Cl)cc4F)n3)CCO2)ccn1
REPORTED PROPERTY: pEC50
READING: ≥ 7.30
--
STRUCTURE: Cn1cc([C@H]2CN(c3cc4ncccc4c(-c4ccc(Cl)cc4F)n3)CCO2)cn1
REPORTED PROPERTY: pEC50
READING: 5.52 to 6.30
--
STRUCTURE: Cc1nc2nc(N3CCO[C@H](c4cnn(C)c4)C3)nc(N3CCC[C@@H](F)C3)c2nc1C
REPORTED PROPERTY: pEC50
READING: 4.00 to 5.52

Please find the next compound below.
Which pEC50 is listed for Cc1cnc2c(C34CC(C(F)(F)F)(C3)C4)nc(N3CCO[C@@H](c4cnn(C5CC5)c4)C3)nc2n1 ? ≥ 7.30

---

- SYSTEM: hTREM2 (Homo sapiens, UniProt Q9NZC2)
- MEASUREMENT PROTOCOL: TREM2 activity by cellular Syk phosphorylation (AlphaScreen/AlphaLISA) in TREM2/DAP12-HEK cells, used for Examples 1-305
- Type: cell-based
- Set-up: expressed in transfected cells
- APPLIED CONDITIONS: HEK293 Cells
- Excerpt: In vitro Measurement of Triggering Receptor Expressed on Myeloid Cells 2 activity using cellular phosphorylation of Spleen Tyrosine Kinase (“Syk”) Assays used for Examples 1-305 Pharmacological measurements of TREM2 signaling through DAP12 were made with TREM2 and DAP12 overexpressing HEK293 cells stable cell lines that had been single-cell cloned (“TREM2/DAP12-HEK”). […]
REPORTED PROPERTY: hTREM2 Emax

MOLECULE: Cc1nc2nc(N3CCO[C@@H](c4cnn(C)c4)C3)nc(-c3ccc(F)cc3F)c2nc1C [Example 31]
REPORTED PROPERTY: hTREM2 Emax
READING: +++ (Emax>150 and ≤250)

MOLECULE: Cc1nc2nc(N3CCO[C@@H](c4cnn(C)c4)C3)nc([C@H]3CC[C@H](C)CC3)c2nc1C [Example 136]
REPORTED PROPERTY: hTREM2 Emax
READING: +++ (Emax>150 and ≤250)

---

- SYSTEM: hTREM2 (Homo sapiens, UniProt Q9NZC2)
- MEASUREMENT PROTOCOL: TREM2 agonist potency by Syk phosphorylation (AlphaLisa) in HEK293T-hTREM2 cells, used for Examples 306-429
- Format: cell-based
- Parameters: expressed in transfected cells; host or cells: HEK293T (HEK293T-hTREM2 cells)
- APPLIED CONDITIONS: HEK293 Cells
pEC50: −log10 of the molar value.
Below: a set of entries, each annotated with reported pEC50.

Solved cases below.
MOLECULE: Cc1nc2nc(N3C[C@@H](C)O[C@@H](c4cnn(C5CC5)c4)C3)nc(-c3ccc(Cl)cc3F)c2nc1C (racemic) [Example 373]
pEC50: ≥ 7.30
//
MOLECULE: Cc1cc([C@H]2CN(c3nc(-c4cc(F)c(Cl)cc4F)c4nc(C)c(C)nc4n3)CCO2)ccn1
pEC50: ≥ 7.30
//
MOLECULE: Cc1cnc2c(C34CC(C(F)(F)F)(C3)C4)nc(N3CCO[C@H](c4cnn(C5CC5)c4)C3)nc2n1
pEC50: ≥ 7.30

I have this molecule here, Cc1cnc2c(-c3ccc(F)cc3F)nc(N3C[C@@H](C)O[C@@H](c4cnn(C5CC5)c4)C3)cc2n1 (racemic) , and I need its recorded pEC50. ≥ 7.30

What value of measured pEC50 is listed for Cc1cnc2c(-c3ccc(F)cc3F)nc([C@H]3C[C@@H](C)O[C@@H](c4cnn(C5CC5)c4)C3)cc2n1 ? 6.30 to 7.30

# pEC50 lookup, item Cc1nc2cc(N3CCO[C@@H](c4cnn(C5CC5)c4)C3)nc(-c3ccc(Cl)cc3F)c2nc1C ≥ 7.30

Could you share which pEC50 value was measured for Cc1cc([C@@H]2CN(c3nc(-c4ccc(Cl)c(F)c4F)c4nc(C)c(C)nc4n3)CCO2)ccn1 ? ≥ 7.30

# input molecule: Cc1nc2nc(N3C[C@@H](c4cnn(C5CC5)c4)O[C@@H](C)C3)nc(C34CC(C(F)(F)F)(C3)C4)c2nc1C ; wanted: its pEC50 ≥ 7.30

Entry Cc1nc2cc(N3CCOC(c4cnn(C5CC5)c4)C3)nc(-c3ccc(C(F)(F)F)nc3)c2nc1C (stereo not shown) : reported pEC50 = ? ≥ 7.30

Query (molecule): Cc1nc2nc([C@@H]3CCO[C@@H](c4cnn(C5CC5)c4)C3)nc(-c3ccc(C(F)(F)F)cc3F)c2nc1C ; field requested: pEC50 6.30 to 7.30

Which pEC50 reading was recorded for the molecule Cc1cc(C2CC(c3cc4nc(C)c(C)nc4c([C@]45C[C@](C(F)(F)F)(C4)C5)n3)CCO2)ccn1 (mixture of isomers) ? ≥ 7.30

Data request, read-out pEC50, for Cc1cnc2c(-c3ccc(F)cc3F)nc([C@H]3CCO[C@@H](c4cnn(C5CC5)c4)C3)cc2n1 (racemic) 6.30 to 7.30

Query (molecule): Cc1cc([C@H]2C[C@H](c3cc4nc(C)c(C)nc4c(-c4ccc(F)cc4F)n3)CCO2)ccn1 ; field requested: pEC50 5.52 to 6.30

Fill in: pEC50 of COc1cc([C@@H]2CN(c3nc(-c4ccc(Cl)cc4F)c4nc(C)c(C)nc4n3)CCO2)ccn1 is ___ 6.30 to 7.30

Reported pEC50 for Cc1nc2cc(N3CCOC(c4cnn(C5CC5)c4)C3)nc(-c3ccc(Cl)cc3F)c2nc1C (stereo not shown) : what is it? ≥ 7.30

Quick one: pEC50 of Cc1cnc2c(-c3ccc(Cl)cc3F)nc(N3C[C@@H](c4cnn(C5CC5)c4)O[C@@H](C)C3)nc2n1 ? 6.30 to 7.30

Could you share which pEC50 value was measured for Cc1cnc2c(-c3ccc(F)cc3F)nc(N3CCOC(c4cnn(C5CC5)c4)C3)cc2n1 (stereo not shown) ? ≥ 7.30
